Reported solubility change mitosis (log2) values for the following sequences.
# System: HeLa Kyoto
# experiment.description: solubility change mitosis vs G1/S (difference of NP-40 vs SDS log2 ratios) (log2 ratio difference); higher = more soluble in mitosis
reported.property: solubility change mitosis (log2)

* MARGGRGRRLGLALGLLLALVLAPRVLRAKPTVRKERVVRPDSELGERPPEDNQSFQYDHEAFLGKEDSKTFDQLTPDESKERLGKIVDRIDNDGDGFVTTEELKTWIKRVQKRYIFDNVAKVWKDYDRDKDDKISWEEYKQATYGYYLGNPAEFHDSSDHHTFKKMLPRDERRFKAADLNGDLTATREEFTAFLHPEEFEHMKEIVVLETLEDIDKNGDGFVDQDEYIADMFSHEENGPEPDWVLSEREQFNEFRDLNKDGKLDKDEIRHWILPQDYDHAQAEARHLVYESDKNKDEKLTKEEILENWNMFVGSQATNYGEDLTKNHDEL [RCN1] | 0.0254
* MLQSLAGSSCVRLVERHRSAWCFGFLVLGYLLYLVFGAVVFSSVELPYEDLLRQELRKLKRRFLEEHECLSEQQLEQFLGRVLEASNYGVSVLSNASGNWNWDFTSALFFASTVLSTTGYGHTVPLSDGGKAFCIIYSVIGIPFTLLFLTAVVQRITVHVTRRPVLYFHIRWGFSKQVVAIVHAVLLGFVTVSCFFFIPAAVFSVLEDDWNFLESFYFCFISLSTIGLGDYVPGEGYNQKFRELYKIGITCYLLLGLIAMLVVLETFCELHELKKFRKMFYVKKDKDEDQVHIIEHDQLSFSSITDQAAGMKEDQKQNEPFVATQSSACVDGPANH [KCNK1] | -0.0475

====

# System: HeLa Kyoto
# experiment.description: thermal stability score vs G1/S (z-score of summed log2 fold changes over temperatures); higher = more thermally stable than in G1/S
# recorded.conditions: cell cycle stage: early G1 (4.5 h after nocodazole release)
Reported thermal stability score values for the following sequences.
reported.property: thermal stability score

- MSLLLLLLLVSYYVGTLGTHTEIKRVAEEKVTLPCHHQLGLPEKDTLDIEWLLTDNEGNQKVVITYSSRHVYNNLTEEQKGRVAFASNFLAGDASLQIEPLKPSDEGRYTCKVKNSGRYVWSHVILKVLVRPSKPKCELEGELTEGSDLTLQCESSSGTEPIVYYWQRIREKEGEDERLPPKSRIDYNHPGRVLLQNLTMSYSGLYQCTAGNEAGKESCVVRVTVQYVQSIGMVAGAVTGIVAGALLIFLLVWLLIRRKDKERYEEEERPNEIREDAEAPKARLVKPSSSSSGSRSSRSGSSSTRSTANSASRSQRTLSTDAAPQPGLATQAYSLVGPEVRGSEPKKVHHANLTKAETTPSMIPSQSRAFQTV [CLMP]: -1.13
- MDCGSVGGQRTQRLPGRQRLLFLPVGLSGRPGGSETSARRCLSALSDGLGALRPRAPAARGGVSRASPLLLLLLVPSPRLAAAAPRRQLGDWERSRLGYAAPPAGRSSAWRCSPGVAAAAGALPQYHGPAPALVSCRRELSLSAGSLQLERKRRDFTSSGSRKLYFDTHALVCLLEDNGFATQQAEIIVSALVKILEANMDIVYKDMVTKMQQEITFQQVMSQIANVKKDMIILEKSEFSALRAENEKIKLELHQLKQQVMDEVIKVRTDTKLDFNLEKSRVKELYSLNEKKLLELRTEIVALHAQQDRALTQTDRKIETEVAGLKTMLESHKLDNIKYLAGSIFTCLTVALGFYRLWI [MCUR1]: -0.0232
- MSSRKQGSQPRGQQSAEEENFKKPTRSNMQRSKMRGASSGKKTAGPQQKNLEPALPGRWGGRSAENPPSGSVRKTRKNKQKTPGNGDGGSTSEAPQPPRKKRARADPTVESEEAFKNRMEVKVKIPEELKPWLVEDWDLVTRQKQLFQLPAKKNVDAILEEYANCKKSQGNVDNKEYAVNEVVAGIKEYFNVMLGTQLLYKFERPQYAEILLAHPDAPMSQVYGAPHLLRLFVRIGAMLAYTPLDEKSLALLLGYLHDFLKYLAKNSASLFTASDYKVASAEYHRKAL [MORF4L2]: 0.948
- MATASPAADGGRGRPWEGGLVSWPPAPPLTLPWTWMGPSWGQHPGHWGFPALTEPSASPAAGLGIFEVRRVLDASGCSMLAPLQTGAARFSSYLLSRARKVLGSHLFSPCGVPEFCSISTRKLAAHGFGASMAAMVSFPPQRYHYFLVLDFEATCDKPQIHPQEIIEFPILKLNGRTMEIESTFHMYVQPVVHPQLTPFCTELTGIIQAMVDGQPSLQQVLERVDEWMAKEGLLDPNVKSIFVTCGDWDLKVMLPGQCQYLGLPVADYFKQWINLKKAYSFAMGCWPKNGLLDMNKGLSLQHIGRPHSGIDDCKNIANIMKTLAYRGFIFKQTSKPF [ERI3]: 0.384
- MAASAGAGAVIAAPDSRRWLWSVLAAALGLLTAGVSALEVYTPKEIFVANGTQGKLTCKFKSTSTTGGLTSVSWSFQPEGADTTVSFFHYSQGQVYLGNYPPFKDRISWAGDLDKKDASINIENMQFIHNGTYICDVKNPPDIVVQPGHIRLYVVEKENLPVFPVWVVVGIVTAVVLGLTLLISMILAVLYRRKNSKRDYTGCSTSESLSPVKQAPRKSPSDTEGLVKSLPSGSHQGPVIYAQLDHSGGHHSDKINKSESVVYADIRKN [MPZL1]: -1.73

====

# Tested on: HeLa Kyoto
# experiment.description: melting temperature (median over replicates), in situ; higher = more thermally stable
# recorded.conditions: cell cycle stage: G1/S
reported.property: melting temperature (°C)

• MESPASSQPASMPQSKGKSKRKKDLRISCMSKPPAPNPTPPRNLDSRTFITIGDRNFEVEADDLVTISELGRGAYGVVEKVRHAQSGTIMAVKRIRATVNSQEQKRLLMDLDINMRTVDCFYTVTFYGALFREGDVWICMELMDTSLDKFYRKVLDKNMTIPEDILGEIAVSIVRALEHLHSKLSVIHRDVKPSNVLINKEGHVKMCDFGISGYLVDSVAKTMDAGCKPYMAPERINPELNQKGYNVKSDVWSLGITMIEMAILRFPYESWGTPFQQLKQVVEEPSPQLPADRFSPEFVDFTAQCLRKNPAERMSYLELMEHPFFTLHKTKKTDIAAFVKEILGEDS [MAP2K3] = 48.8
• MSGLRVYSTSVTGSREIKSQQSEVTRILDGKRIQYQLVDISQDNALRDEMRALAGNPKATPPQIVNGDQYCGDYELFVEAVEQNTLQEFLKLA [SH3BGRL3] = 54.2
• MAASGESGTSGGGGSTEEAFMTFYSEVKQIEKRDSVLTSKNQIERLTRPGSSYFNLNPFEVLQIDPEVTDEEIKKRFRQLSILVHPDKNQDDADRAQKAFEAVDKAYKLLLDQEQKKRALDVIQAGKEYVEHTVKERKKQLKKEGKPTIVEEDDPELFKQAVYKQTMKLFAELEIKRKEREAKEMHERKRQREEEIEAQEKAKREREWQKNFEESRDGRVDSWRNFQANTKGKKEKKNRTFLRPPKVKMEQRE [DNAJC8] = 50.1
• MDLAANEISIYDKLSETVDLVRQTGHQCGMSEKAIEKFIRQLLEKNEPQRPPPQYPLLIVVYKVLATLGLILLTAYFVIQPFSPLAPEPVLSGAHTWRSLIHHIRLMSLPIAKKYMSENKGVPLHGGDEDRPFPDFDPWWTNDCEQNESEPIPANCTGCAQKHLKVMLLEDAPRKFERLHPLVIKTGKPLLEEEIQHFLCQYPEATEGFSEGFFAKWWRCFPERWFPFPYPWRRPLNRSQMLRELFPVFTHLPFPKDASLNKCSFLHPEPVVGSKMHKMPDLFIIGSGEAMLQLIPPFQCRRHCQSVAMPIEPGDIGYVDTTHWKVYVIARGVQPLVICDGTAFSEL [C6ORF89] = 53.2
• MATALALRSLYRARPSLRCPPVELPWAPRRGHRLSPADDELYQRTRISLLQREAAQAMYIDSYNSRGFMINGNRVLGPCALLPHSVVQWNVGSHQDITEDSFSLFWLLEPRIEIVVVGTGDRTERLQSQVLQAMRQRGIAVEVQDTPNACATFNFLCHEGRVTGAALIPPPGGTSLTSLGQAAQ [NDUFAF3] = 53.4
• MAPGVARGPTPYWRLRLGGAALLLLLIPVAAAQEPPGAACSQNTNKTCEECLKNVSCLWCNTNKACLDYPVTSVLPPASLCKLSSARWGVCWVNFEALIITMSVVGGTLLLGIAICCCCCCRRKRSRKPDRSEEKAMREREERRIRQEERRAEMKTRHDEIRKKYGLFKEENPYARFENN [PTTG1IP] = 56.3
• RALGAPA1 = 50.2
• MGKIALQLKATLENITNLRPVGEDFRWYLKMKCGNCGEISDKWQYIRLMDSVALKGGRGSASMVQKCKLCARENSIEILSSTIKPYNAEDNENFKTIVEFECRGLEPVDFQPQAGFAAEGVESGTAFSDINLQEKDWTDYDEKAQESVGIYEVTHQFVKC [C1ORF123] = 52.2
• MGEFNEKKTTCGTVCLKYLLFTYNCCFWLAGLAVMAVGIWTLALKSDYISLLASGTYLATAYILVVAGTVVMVTGVLGCCATFKERRNLLRLYFILLLIIFLLEIIAGILAYAYYQQLNTELKENLKDTMTKRYHQPGHEAVTSAVDQLQQEFHCCGSNNSQDWRDSEWIRSQEAGGRVVPDSCCKTVVALCGQRDHASNIYKVEGGCITKLETFIQEHLRVIGAVGIGIACVQVFGMIFTCCLYRSLKLEHY [CD151] = 60
• MSSLIRRVISTAKAPGAIGPYSQAVLVDRTIYISGQIGMDPSSGQLVSGGVAEEAKQALKNMGEILKAAGCDFTNVVKTTVLLADINDFNTVNEIYKQYFKSNFPARAAYQVAALPKGSRIEIEAVAIQGPLTTASL [HRSP12] = 55.4
• MFKNTFQSGFLSILYSIGSKPLQIWDKKVRNGHIKRITDNDIQSLVLEIEGTNVSTTYITCPADPKKTLGIKLPFLVMIIKNLKKYFTFEVQVLDDKNVRRRFRASNYQSTTRVKPFICTMPMRLDDGWNQIQFNLLDFTRRAYGTNYIETLRVQIHANCRIRRVYFSDRLYSEDELPAEFKLYLPVQNKAKQ [CFAP20] = 50.9
• MSDLLLLGLIGGLTLLLLLTLLAFAGYSGLLAGVEVSAGSPPIRNVTVAYKFHMGLYGETGRLFTESCSISPKLRSIAVYYDNPHMVPPDKCRCAVGSILSEGEESPSPELIDLYQKFGFKVFSFPAPSHVVTATFPYTTILSIWLATRRVHPALDTYIKERKLCAYPRLEIYQEDQIHFMCPLARQGDFYVPEMKETEWKWRGLVEAIDTQVDGTGADTMSDTSSVSLEVSPGSRETSAATLSPGASSRGWDDGDTRSEHSYSESGASGSSFEELDLEGEGPLGESRLDPGTEPLGTTKWLWEPTAPEKGKE [TEX264] = 51.2
• MSSGIHVALVTGGNKGIGLAIVRDLCRLFSGDVVLTARDVTRGQAAVQQLQAEGLSPRFHQLDIDDLQSIRALRDFLRKEYGGLDVLVNNAGIAFKVADPTPFHIQAEVTMKTNFFGTRDVCTELLPLIKPQGRVVNVSSIMSVRALKSCSPELQQKFRSETITEEELVGLMNKFVEDTKKGVHQKEGWPSSAYGVTKIGVTVLSRIHARKLSEQRKGDKILLNACCPGWVRTDMAGPKATKSPEEGAETPVYLALLPPDAEGPHGQFVSEKRVEQW [CBR1] = 53.2
